- MEASURED_TARGET: T1, Recombinant truncated human CD2 (human, UniProt P06729 25-209, limits assumed)
- T1 construct: Bought; also called LFA2
- T1 sequence (looked up): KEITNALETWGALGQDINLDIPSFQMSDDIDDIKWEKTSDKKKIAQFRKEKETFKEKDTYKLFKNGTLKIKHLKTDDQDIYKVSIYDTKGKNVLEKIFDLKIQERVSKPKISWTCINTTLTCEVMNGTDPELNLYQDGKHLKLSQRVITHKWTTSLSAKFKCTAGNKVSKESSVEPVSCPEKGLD
- PROTOCOL: SPR (Biacore T200), IgG amine-coupled to CM5 chip, CD2 injected up to 5 nM, two-state model, 25 °C
EXPERIMENTAL_ENDPOINT: pKd
Answers are plain numbers, as −log10 of the molar value.

Give the measured pKd of Siplizumab (humanized anti-CD2 IgG1κ) (antibody, V domains shown, also called MEDI-507; anti-CD2 Ab1) VH: QVQLVQSGAEVQRPGASVKVSCKASGYIFTEYYMYWVRQAPGQGLELVGRIDPEDGSIDYVEKFKKKVTLTADTSSSTAYMELSSLTSDDTAVYYCARGKFNYRFAYWGQGTLVTVSS VL: DVVMTQSPPSLLVTLGQPASISCRSSQSLLHSSGNTYLNWLLQRPGQSPQPLIYLVSKLESGVPDRFSGSGSGTDFTLKISGVEAEDVGVYYCMQFTHYPYTFGQGTKLEIK .
8.92
